Target: HLA-DR1 (human)
Experiment: competitive binding assay; DR1 format not described
OBSERVATION TYPE: IC50 (µM)

In [3]: df
Out[3]:
                                     binder  observation_type  recorded_value
0  KYVAMVMDHILLGV (peptide, UniProt P02708 420-433, looked up) [AChRα peptide 400-413]              IC50            11.7

(1) HFVMQRLPLYFIVN (peptide, UniProt P02708 224-237, looked up) [AChRα peptide 204-217]
(2) QLIQLINVDEVNQI (peptide, UniProt P02708 56-69, looked up, range 36-49; also called AChRα 36-49) [AChRα peptide 36-49]
Q: // max by IC50 over [ 1 , 2 ] Write down the label attached to your selection.
Ans: 2
(2: 11.2 µM, 1: 1.75 µM)

Provenance of the data: patent US20050048066A1
